# IC50 (neutralization in TZM.bl cells) per entry
Biological target: HIV-1 pseudovirus 263-8 (HIV-1)
Experiment: cell-based or functional assay
// return numeric value only (unit: µg/mL, not printed)

MS-84 (antibody, V domains shown) VH: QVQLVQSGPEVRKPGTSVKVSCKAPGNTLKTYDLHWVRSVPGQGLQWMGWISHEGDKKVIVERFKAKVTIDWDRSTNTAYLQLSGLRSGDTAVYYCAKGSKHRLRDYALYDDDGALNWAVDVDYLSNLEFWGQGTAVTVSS VL: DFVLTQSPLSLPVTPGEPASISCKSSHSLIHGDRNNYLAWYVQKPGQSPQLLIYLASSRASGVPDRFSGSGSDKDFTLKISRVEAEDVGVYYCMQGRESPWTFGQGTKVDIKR ... 0.006
MS-76 (antibody, V domains shown) VH: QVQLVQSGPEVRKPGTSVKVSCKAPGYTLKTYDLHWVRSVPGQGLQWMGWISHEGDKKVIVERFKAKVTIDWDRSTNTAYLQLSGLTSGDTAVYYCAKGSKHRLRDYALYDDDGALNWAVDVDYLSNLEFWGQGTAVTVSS VL: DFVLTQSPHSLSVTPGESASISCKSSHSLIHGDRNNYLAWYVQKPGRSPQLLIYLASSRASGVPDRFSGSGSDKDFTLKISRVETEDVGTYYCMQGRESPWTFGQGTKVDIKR ... 0.015

Continue with the next binder.
q: Which IC50 (neutralization in TZM.bl cells) value belongs to MS-75 (antibody, V domains shown) VH: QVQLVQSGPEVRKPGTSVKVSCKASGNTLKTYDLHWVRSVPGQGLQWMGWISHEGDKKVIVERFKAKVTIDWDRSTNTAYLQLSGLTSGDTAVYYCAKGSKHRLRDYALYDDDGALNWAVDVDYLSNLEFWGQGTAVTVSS VL: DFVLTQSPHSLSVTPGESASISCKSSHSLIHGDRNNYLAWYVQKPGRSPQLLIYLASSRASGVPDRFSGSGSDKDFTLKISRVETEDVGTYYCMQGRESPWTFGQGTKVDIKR ?
a: 0.018

Provenance of the data: patent US20220025021A1
